Some binders, each annotated with its measured pIC50.
# TARGET_SYSTEM: T1, human CLDN18.2 (human)
# T1 construct: the HEK293 line was made with a GenScript plasmid; also called hCLDN18.2
# TEST_SUMMARY: competition FACS on HEK293/hCLDN18.2 cells; competitor 10 nM biotinylated PR000400
Units for pIC50: none; it is -log10 of a concentration expressed in mol/L.

Use these answered entries as a reference point.
binder="PR004536 (antibody, V domains shown, anti-CLDN18.2 HCAb: VH fused to human IgG1 Fc, no light chain; also called R1029P028A11) VH: EVQLVESGGGLVQPGGSLRLSCAASGFTFSSYWMYWVRQVPGKGLVWVSHINSDGSTTQYADSVKGRFTISRDNAKNMLYLQMNSLRAEDTAVYYCARDFPVLGGSHFDFQHWGQGTLVTVSS" property_measured=pIC50 obs_value=6.99
binder="PR004540 (antibody, V domains shown, anti-CLDN18.2 HCAb: VH fused to human IgG1 Fc, no light chain; also called R1029P037B07) VH: EVQLVESGGGLVQPGGSLRLSCAASGFTFSIYWMHWVRQVPGKGLVLVSRISSDGNYTSYADSVKGRFTISRDNAKNTLYLQMNSLRAEDTAVYLCARGEDHDMLTGYPVRGQGTTVTVSS" property_measured=pIC50 obs_value=7.19

Prompt: Read the entry PR000400 (antibody, human IgG1, kappa, V domains shown, also called IMAB362 analogue) VH: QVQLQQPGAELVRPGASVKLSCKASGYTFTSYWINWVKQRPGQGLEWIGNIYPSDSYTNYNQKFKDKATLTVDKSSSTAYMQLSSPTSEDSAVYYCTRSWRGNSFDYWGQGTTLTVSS VL: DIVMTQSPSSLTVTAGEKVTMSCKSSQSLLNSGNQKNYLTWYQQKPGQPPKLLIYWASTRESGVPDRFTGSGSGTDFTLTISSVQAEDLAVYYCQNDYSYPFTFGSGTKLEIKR and write its reported pIC50.
Response: 7.70
